Test system: EKVX NSCLC
Assay: NCI tumour cell line growth inhibition, 48 h
PROPERTY NAME: TGI

Look over these answered cases.
{"MOLECULE": "C[N+](C)(C)c1ncnc2c1ncn2C1CCCO1 (stereo not given)", "RECORDED VALUE": "> 100 µM"}
{"MOLECULE": "CCN1C(=O)N(CC)C2C1NN=c1s/c(=C\\c3ccc(F)cc3)c(=O)n12 (stereo not given)", "RECORDED VALUE": "> 100 µM"}
{"MOLECULE": "O=Nc1c(-c2c(O)[nH]c3ncccc23)[nH]c2ccccc12", "RECORDED VALUE": "> 100 µM"}
{"MOLECULE": "CC1C=CC(OC(=O)C(C)(O)CCC(O)(C(=O)OC2CC(O)C(C(C)C)CC2(C)O)C(C)C)(C(C)C)CC1 (stereo not given)", "RECORDED VALUE": "1.41 µM"}
{"MOLECULE": "COC(=O)Cc1c(-c2c(CC(=O)OC)c3ccccc3n2C2OC(COC(C)=O)C(OC(C)=O)C(OC(C)=O)C2OC(C)=O)[nH]c2ccccc12 (stereo not given)", "RECORDED VALUE": "> 100 µM"}
{"MOLECULE": "CCOC(=O)C1CCCCN1C(=O)Cc1c[nH]c2ccccc12 (stereo not given)", "RECORDED VALUE": "> 100 µM"}
{"MOLECULE": "O=[N+]([O-])c1ccc(C(O)(C#CCN2CCCC2)c2ccccc2)cc1 (stereo not given)", "RECORDED VALUE": "> 100 µM"}
{"MOLECULE": "CN(C)CCc1c2c(nc3ccccc13)C(=O)c1cccnc1C2=O", "RECORDED VALUE": "5.73 µM"}

Requested read-out: TGI. Entry: CCCC(S(=O)(=O)c1ccccc1)S(=O)(=O)c1ccccc1
> 100 µM

Entry O=C(c1ccco1)N(C(=O)N1CCN(c2ccccc2)CC1)S(=O)(=O)c1ccccc1 please
60.2 µM
